assay overview: background-corrected fluorescence of 3'-dye-labeled ssDNA relative to brightest sequence (3'-GCGCG) (fraction); higher = brighter dye fluorescence (less quenching)
measurement parameters: dye: Cy3 (3' terminal)
assay readout: background-corrected fluorescence
API note: the answer field is a bare number with no unit suffix.

Please look up its background-corrected fluorescence: TTTTTTGCTGCGCATGAGCATTTTTTTTTTTTTTTAATCT [TCTAA]
0.483

Please look up its background-corrected fluorescence: TTTTTTGATGATGATGATCATTTTTTTTTTTTTTTCCCCG [GCCCC]
0.471

Please look up its background-corrected fluorescence: TTTTTTCATCATGAGCATCATTTTTTTTTTTTTTTGGCTG [GTCGG]
0.469

Please look up its background-corrected fluorescence: TTTTTGCATCATGCTCATCATTTTTTTTTTTTTTTTGAGG [GGAGT]
0.67

Please look up its background-corrected fluorescence: TTTTTTCATCATGATGCTGATTTTTTTTTTTTTTTGGCAC [CACGG]
0.436

Please look up its background-corrected fluorescence: TTTTTTGATGCTGCGCATGATTTTTTTTTTTTTTTCAATC [CTAAC]
0.421

Please look up its background-corrected fluorescence: TTTTTGCATGCTGCTGAGCATTTTTTTTTTTTTTTTAACT [TCAAT]
0.492

Please look up its background-corrected fluorescence: TTTTTGCATCATGCTCATGCTTTTTTTTTTTTTTTTGAGA [AGAGT]
0.679

Please look up its background-corrected fluorescence: TTTTTTGAGCATGAGCATCATTTTTTTTTTTTTTTCTCTG [GTCTC]
0.48

Please look up its background-corrected fluorescence: TTTTTTGAGCAGCATCATGATTTTTTTTTTTTTTTCTTGC [CGTTC]
0.481

* * *

assay overview: background-corrected fluorescence of 3'-dye-labeled ssDNA relative to brightest sequence (3'-GCGCG) (fraction); higher = brighter dye fluorescence (less quenching)
measurement parameters: dye: Cy5 (3' terminal)
Outcome label depends on background-corrected fluorescence relative to 0.4: at/above gives 1, below gives 0.

Test whether the sequence TTTTTGCATGCGCATGCTCATTTTTTTTTTTTTTTTATAG [GATAT] records background-corrected fluorescence of 0.4 or higher.
1

Test whether the sequence `TTTTTTCATGATCATGATCATTTTTTTTTTTTTTTGCGCG` records background-corrected fluorescence of 0.4 or higher.
1

Test whether the sequence TTTTTGCATGCTCAGCATGATTTTTTTTTTTTTTTTAGTC [CTGAT] records background-corrected fluorescence of 0.4 or higher.
0

Test whether the sequence TTTTTGCATGAGCAGCATGATTTTTTTTTTTTTTTTCTTC [CTTCT] records background-corrected fluorescence of 0.4 or higher.
0

Test whether the sequence `TTTTTGCATCATGCTCAGCATTTTTTTTTTTTTTTTGAGT` records background-corrected fluorescence of 0.4 or higher.
1

Test whether the sequence TTTTTTGATCATGCTGATGATTTTTTTTTTTTTTTCGACC [CCAGC] records background-corrected fluorescence of 0.4 or higher.
0

Test whether the sequence TTTTTTGAGCAGCATGCTGCTTTTTTTTTTTTTTTCTTAA [AATTC] records background-corrected fluorescence of 0.4 or higher.
1

Test whether the sequence `TTTTTTCAGCATGAGCATCATTTTTTTTTTTTTTTGTCTG` records background-corrected fluorescence of 0.4 or higher.
0

Test whether the sequence TTTTTGCAGCATCATGATGCTTTTTTTTTTTTTTTTTGCA [ACGTT] records background-corrected fluorescence of 0.4 or higher.
1
